# TESTED_ON: Proto-oncogene tyrosine-protein kinase ROS (Homo sapiens) (UniProt P08922)
# Sequence (P08922 whole entry): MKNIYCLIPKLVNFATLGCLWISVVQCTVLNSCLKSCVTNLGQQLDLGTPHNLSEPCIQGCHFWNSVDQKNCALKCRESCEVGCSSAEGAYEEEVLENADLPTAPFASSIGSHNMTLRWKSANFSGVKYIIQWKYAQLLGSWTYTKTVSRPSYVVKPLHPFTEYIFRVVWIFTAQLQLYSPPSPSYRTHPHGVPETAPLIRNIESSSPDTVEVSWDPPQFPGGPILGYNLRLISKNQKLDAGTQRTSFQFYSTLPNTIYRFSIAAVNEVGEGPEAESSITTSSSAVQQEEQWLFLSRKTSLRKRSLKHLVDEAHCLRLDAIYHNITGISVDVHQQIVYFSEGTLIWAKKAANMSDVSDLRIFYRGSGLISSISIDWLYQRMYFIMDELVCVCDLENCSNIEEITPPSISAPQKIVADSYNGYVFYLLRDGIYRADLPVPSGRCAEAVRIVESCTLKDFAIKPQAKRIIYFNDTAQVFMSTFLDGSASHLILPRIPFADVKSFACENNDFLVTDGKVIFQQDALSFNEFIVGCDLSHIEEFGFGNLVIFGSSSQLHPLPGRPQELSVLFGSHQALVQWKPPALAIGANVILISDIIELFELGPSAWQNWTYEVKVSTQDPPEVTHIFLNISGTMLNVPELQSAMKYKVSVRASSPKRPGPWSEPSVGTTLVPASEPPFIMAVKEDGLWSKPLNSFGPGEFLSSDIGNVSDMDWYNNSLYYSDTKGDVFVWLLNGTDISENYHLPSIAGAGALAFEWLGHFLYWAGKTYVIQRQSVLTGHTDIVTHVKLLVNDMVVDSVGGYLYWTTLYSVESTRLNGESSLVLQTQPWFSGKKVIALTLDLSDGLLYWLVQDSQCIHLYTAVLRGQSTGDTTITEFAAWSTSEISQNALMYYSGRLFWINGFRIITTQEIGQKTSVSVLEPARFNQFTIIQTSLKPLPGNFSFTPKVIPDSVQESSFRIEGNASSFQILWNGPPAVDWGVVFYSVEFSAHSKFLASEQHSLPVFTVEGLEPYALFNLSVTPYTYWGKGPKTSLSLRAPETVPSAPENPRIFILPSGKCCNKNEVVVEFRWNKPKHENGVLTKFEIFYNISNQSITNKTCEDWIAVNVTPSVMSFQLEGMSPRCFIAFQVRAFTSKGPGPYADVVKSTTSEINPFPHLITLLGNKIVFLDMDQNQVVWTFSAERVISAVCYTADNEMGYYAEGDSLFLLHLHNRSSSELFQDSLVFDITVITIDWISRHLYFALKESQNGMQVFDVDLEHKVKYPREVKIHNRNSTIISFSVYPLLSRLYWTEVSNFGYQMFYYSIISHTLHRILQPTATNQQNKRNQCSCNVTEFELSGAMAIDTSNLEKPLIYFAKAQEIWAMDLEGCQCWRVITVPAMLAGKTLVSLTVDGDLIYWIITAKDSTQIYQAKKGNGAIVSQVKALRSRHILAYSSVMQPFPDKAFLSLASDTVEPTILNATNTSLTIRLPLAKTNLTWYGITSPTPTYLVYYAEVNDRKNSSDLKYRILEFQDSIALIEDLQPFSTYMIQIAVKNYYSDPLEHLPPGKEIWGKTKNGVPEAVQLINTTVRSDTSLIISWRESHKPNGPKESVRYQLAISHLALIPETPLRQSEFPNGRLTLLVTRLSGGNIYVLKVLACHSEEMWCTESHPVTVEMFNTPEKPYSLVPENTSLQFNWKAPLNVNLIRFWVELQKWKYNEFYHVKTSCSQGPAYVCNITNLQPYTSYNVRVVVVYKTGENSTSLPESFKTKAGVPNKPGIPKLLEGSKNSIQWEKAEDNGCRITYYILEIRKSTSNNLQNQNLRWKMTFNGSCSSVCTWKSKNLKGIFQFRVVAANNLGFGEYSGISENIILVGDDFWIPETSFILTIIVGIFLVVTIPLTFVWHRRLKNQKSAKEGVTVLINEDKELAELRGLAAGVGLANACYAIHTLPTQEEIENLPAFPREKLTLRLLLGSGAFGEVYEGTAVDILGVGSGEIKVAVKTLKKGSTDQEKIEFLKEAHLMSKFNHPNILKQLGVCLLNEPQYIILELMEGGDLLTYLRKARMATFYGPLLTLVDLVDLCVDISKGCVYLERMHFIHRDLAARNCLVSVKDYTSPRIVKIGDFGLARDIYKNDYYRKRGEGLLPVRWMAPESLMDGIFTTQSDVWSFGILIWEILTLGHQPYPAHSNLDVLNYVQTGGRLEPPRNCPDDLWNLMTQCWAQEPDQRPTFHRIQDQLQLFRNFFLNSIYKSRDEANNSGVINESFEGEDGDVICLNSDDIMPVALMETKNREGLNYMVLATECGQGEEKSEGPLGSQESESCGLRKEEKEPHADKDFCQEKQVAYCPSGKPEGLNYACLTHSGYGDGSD
# RECORDED_CONDITIONS: at 1 µM;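 further: value given is the mean percent inhibition of ROS kinase activity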
I'd appreciate it if you could supply inhibition values for the items below.
Numbers only, in %.

Record excerpt, results attached:
COMPOUND_STRUCTURE_STRING | inhibition / %
COc1cc(Nc2ncc(-c3ccccc3)o2)cc(OC)c1 | 11.9
CCOc1ccc2c(-c3ccnc(Nc4cc(OC)cc(C(F)(F)F)c4)n3)cnn2n1 | 20.7
NC(=O)c1ccc2c(-c3ccnc(NCCCO)n3)c(-c3ccc(F)cc3)nn2c1 | 10.6
Cc1cc(O)cc(C)c1/C=C/c1cncc(C(N)=O)c1 | 6.31
CS(=O)(=O)CCNCc1ccoc1-c1ccc2ncnc(Nc3ccc(OCc4ccccc4)cc3)c2c1 | 2

Please give inhibition, item by item, for the list that follows.
1. CN1CCC(n2cnc(-c3ccc(F)cc3)c2-c2ccnc(NCCO)n2)CC1
2. c1cnn2ncc(-c3ccnc(NCCCN4CCOCC4)n3)c2c1
3. CN(c1ccc(NC(=O)NCCN2CCOCC2)cc1)c1ccnc(Nc2ccc(CS(C)(=O)=O)cc2)n1

1: 2.72; 2: 8.64; 3: 43.5
